Provide the reported TGI of each item.
System: U251 CNS
protocol.summary: NCI tumour cell line growth inhibition, 48 h
Give just the numeric value; µM need not be written.

Problem: # input compound: CC(=O)OC[C@]1(C)C=C2C(=O)[C@](C)(O)C3(CC3)C(C)=C2[C@H]1O ; wanted: its TGI
Solution: 6.16

Problem: Would you mind telling me what TGI value was observed for O=C1Nc2c(C(F)(F)F)cccc2[C@]1(c1ccc(O)cc1)c1ccc(OC(F)(F)F)cc1 ?
Solution: 24.6

Problem: Reported TGI, compound Oc1c(CN2CCC(N3CCCCC3)CC2)cc(Cc2cc(CN3CCC(N4CCCCC4)CC3)c(O)c3ncccc23)c2cccnc12 : ____
Solution: 13.6

Problem: Data request, read-out TGI, for O=C1CCCCN1CCCCC#Cc1ccccc1C#Cc1ccc([N+](=O)[O-])cc1
Solution: 14.4

----------
Tested on: KM12 colon
protocol.summary: NCI tumour cell line growth inhibition, 48 h; in the data active = GI50 below about 0.43 µM; inactive = the rest
Your reply should match one of these outcome classes. active, inactive

Problem: Answer briefly: the call reported for COc1cc(C2=C(c3ccccc3)COC2=O)cc(OC)c1OC in this assay.
Solution: inactive

Problem: Fill in: this test's call for Oc1ccc(CN2CCC(N3CCCCC3)CC2)c2cccnc12 is ___
Solution: inactive

Problem: Recorded test outcome, item COc1cc(C2NC(=O)c3ccccc3N2)ccc1OCCCCCOc1c(OC)cc(C2=NOC(c3cc(OC)c(OC)c(OC)c3)C2)cc1OC (centres undefined)
Solution: inactive

Problem: Identify the outcome logged in this assay for the compound shown: COC(=O)[C@]12CC[C@@H](C)[C@H](C)[C@@H]1C1=CC[C@@H]3[C@@]4(C)C/C(=N\O)[C@H](O)[C@@]5(C)COC(=C45)C[C@@]3(C)[C@]1(C)CC2
Solution: inactive

Problem: Per the assay record, what outcome was assigned to C=CCCCCCCCCC(=O)[O][Sn]([CH2]CCC)([CH2]CCC)[CH2]CCC ?
Solution: active

Problem: What outcome does the record of this test show for [Cl-].[Dy+3].[O-]/N=C(\c1ccccc1)c1ccccn1.[O-]/N=C(\c1ccccc1)c1ccccn1.[O-]/N=C(\c1ccccc1)c1ccccn1 ?
Solution: inactive

Problem: Lab log entry: COc1ccc(/C(COc2c(-c3ccccc3)oc3ccccc3c2=O)=N\O)cc1 — outcome as called in the assay?
Solution: inactive

Problem: # lookup: test call for OCC(O)CC[CH2][Sn]([Br])([c]1ccccc1)[c]1ccccc1 (centres undefined)
Solution: inactive

Problem: Record request — test call for Oc1ccc2ccccc2c1N=Nc1nccs1
Solution: inactive

----------
System: OVCAR-8 ovarian
protocol.summary: NCI tumour cell line growth inhibition, 48 h; in the data active = GI50 below about 0.43 µM; inactive = the rest
Reply using exactly one outcome from active, inactive

Problem: Would you mind telling me which call this test gave CCOC(=O)[C]1([Bi]([CH3])[CH3])N=NC(C(=O)OC)=C1C(=O)OC (configuration not stated) ?
Solution: inactive

Problem: Which outcome was entered for the compound O=C1Nc2c(C(F)(F)F)cccc2[C@]1(c1ccc(O)cc1)c1ccc(OC(F)(F)F)cc1 in this test?
Solution: inactive

Problem: Record lookup: outcome of this test for Oc1c(CN2CCC(N3CCCCC3)CC2)cc(Cc2cc(CN3CCC(N4CCCCC4)CC3)c(O)c3ncccc23)c2cccnc12 ?
Solution: inactive

Problem: Record request — test call for COc1ccc(-c2cnnc3c(-c4cccc(C(F)(F)F)c4)cnn23)cc1
Solution: inactive

Problem: # outcome recorded in this test, key = Nc1cc(N)c2nc(-c3ccccc3)c(Nc3ccc(Cl)c(Cl)c3)nc2c1
Solution: inactive

Problem: Entry CCN(CC)c1ccc(/C=C/c2ccc3cc(C)ccc3[n+]2CC)cc1 : call = ?
Solution: active

Problem: Which outcome did this test record for the compound N#Cc1ccc(NC(=O)Nc2ccc(Oc3ccc(NC(=O)Nc4ccc(C#N)cc4)cc3)cc2)cc1 ?
Solution: inactive

Problem: Can you look up the reported call for Nc1nc(Cl)c2ncn(Cc3ccc(C45CC6CC(CC(C6)C4)C5)c(O)c3)c2n1 for me?
Solution: inactive

Problem: Called result for CCCn1cnc2c(SCc3ccccc3Cl)nc(N)nc21
Solution: inactive

Problem: Write down the call the test reported for this compound. Item: COc1cc(C2NC(=O)c3ccccc3N2)ccc1OCCCCCOc1c(OC)cc(C2=NOC(c3cc(OC)c(OC)c(OC)c3)C2)cc1OC (configuration not stated)
Solution: inactive

Problem: Recorded test outcome, item O=c1/c(=C/c2ccco2)sc2nc3ccccc3n12
Solution: inactive

Problem: In this assay, the call recorded for COc1ccc(/C(COc2c(-c3ccccc3)oc3ccccc3c2=O)=N\O)cc1 was what?
Solution: inactive

----------
System: NCI/ADR-RES ovarian
protocol.summary: NCI tumour cell line growth inhibition, 48 h
Please go through the items and note down their TGI.
The response must be a number in µM with no trailing unit.

Problem: Query: TGI; subject: O=C1Nc2c(C(F)(F)F)cccc2[C@]1(c1ccc(O)cc1)c1ccc(OC(F)(F)F)cc1
Solution: 25.8

Problem: Item under review: CC(C)(C)OC(=O)N1CCc2c(sc3ncnc(N/N=C/c4cccc5ccccc45)c23)C1 . Reported TGI?
Solution: 43.8

Problem: Form field: reported TGI of Nc1nc(Cl)c2ncn(Cc3ccc(C45CC6CC(CC(C6)C4)C5)c(O)c3)c2n1
Solution: 16.4

Problem: For CCOC(=O)C(NC(=O)CC(C)C)(N1CCN(c2cc3c(cc2F)c(=O)c(C(=O)O)cn3C2CC2)CC1)C(F)(F)F (stereo not given) , what is its reported TGI?
Solution: 52.2

Problem: GET /values?readout=TGI&item= C=C1C(=O)O[C@H]2[C@H]1CC/C(Cn1cc(-c3ccc(OC)cc3)nn1)=C\CC[C@@]1(C)O[C@@H]21
Solution: 12.4

Problem: Quick check: TGI of Nc1ccc2[nH]c(-c3cccc(Cl)c3)cc(=O)c2c1 ?
Solution: 12.4

----------
System: DU-145 prostate
protocol.summary: NCI tumour cell line growth inhibition, 48 h; in the data active = GI50 below about 0.43 µM; inactive = the rest
Use one of these outcomes when replying: active, inactive

Problem: Dear all, I need the recorded test outcome for O=C1Nc2c(C(F)(F)F)cccc2[C@]1(c1ccc(O)cc1)c1ccc(OC(F)(F)F)cc1 , thank you.
Solution: inactive

Problem: Hi, do you know how O=c1[nH]ncc(Br)c1Br came out in this test?
Solution: inactive

Problem: Hello, I am checking results. What call was entered for COC(=O)[C@]12CC[C@@H](C)[C@H](C)[C@@H]1C1=CC[C@@H]3[C@@]4(C)C/C(=N\O)[C@H](O)[C@@]5(C)COC(=C45)C[C@@]3(C)[C@]1(C)CC2 ?
Solution: inactive

Problem: So what was the verdict on COc1cc([N+](=O)[O-])cc2c3c(n(C)c12)[C@@]1(C)CCC2c4ccc(OCc5ccccc5)cc4CCC2C1C3 (stereo partly drawn) in this test?
Solution: inactive

Problem: What did the test return for C=CCCCCCCCCC(=O)[O][Sn]([CH2]CCC)([CH2]CCC)[CH2]CCC ?
Solution: active

Problem: So what was the verdict on CS(=O)(=O)c1ccc([C@H]2O[C@@H](CO)C[C@]2(O)c2ccc(S(C)(=O)=O)cc2)cc1 in this test?
Solution: inactive

Problem: Please share the test call associated with COc1cc(C2NC(=O)c3ccccc3N2)ccc1OCCCCCOc1c(OC)cc(C2=NOC(c3cc(OC)c(OC)c(OC)c3)C2)cc1OC (stereo not drawn) .
Solution: inactive

Problem: Short answer needed: outcome of this test for Oc1c(CN2CCC(N3CCCCC3)CC2)cc(Cc2cc(CN3CCC(N4CCCCC4)CC3)c(O)c3ncccc23)c2cccnc12 ?
Solution: inactive

----------
System: SNB-75 CNS
protocol.summary: NCI tumour cell line growth inhibition, 48 h
measure.name: TGI (µM)
Kindly answer with a numeric value in µM, unit omitted.

Problem: Look up TGI: COc1c(C)c2nc3ccccc3[nH]c2c2c(=O)ccnc12
Solution: 35.1

Problem: State the recorded TGI for this entry: CN1CCN(C(=O)OCc2nc3c(N4CCOCC4)nc(Cl)nc3n2C)CC1
Solution: 2.73

Problem: Which measured TGI value corresponds to O=C1Nc2c(C(F)(F)F)cccc2[C@]1(c1ccc(O)cc1)c1ccc(OC(F)(F)F)cc1 ?
Solution: 19.5

Problem: Which TGI reading was recorded for the compound CC[C@]1(O)C[C@@H]2CN(CCc3c([nH]c4ccccc34)[C@@](C(=O)OC)(c3cc4c(cc3OC)N(C)[C@H]3[C@@](O)(C(=O)OC)[C@H](OC(C)=O)[C@]5(CC)C=CCN6CC[C@]43[C@@H]65)C2)C1 ?
Solution: 0.592

Problem: Endpoint output: TGI of O=C(Nc1cccc(O)c1)C(=O)C(C(=O)c1ccccc1F)C1OC(=O)c2ccccc21 (centres undefined) . Value?
Solution: 53.1

Problem: For the compound COc1cc2c(/C=C3/C(=O)Nc4ccccc43)c(Cl)[nH]c2cc1C , what TGI is on record?
Solution: 17.9
